FYI, the data here is from the supplement of paper PMC10567573.

B1: PHTF1 (parent)
chain: SRHLNSQVKKTTTRWCHIVRDSDS

variants of: B1; assay: protein stability index of a GFP-peptide fusion (GPS, HEK-293T) (PSI 1-6); higher = more stable; conditions: c terminus: a fixed tail appended;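 also: lentivirally expressed fusions sorted by FACS into six bins by GFP to DsRed ratio, PSI derived from sequencing read proportions per bin multiplied by bin number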
Measured Endpoint: protein stability index
Answers are plain numbers.

Example entries begin here.
SRHLNSQRKKTTTRWCHIVRDSDS [V8R] = 1.78
SRHLNSQVKKTTTRWCHILRDSDS [V19L] = 2.35
SRHLNSQVKKTTTRWCHIVRWSDS [D21W] = 2.23

For each of the variants below, state protein stability index.
1. SRHLNSQVKKTTTRWCHIKRDSDS [V19K]
2. SRHLNSQVKKTTTRWCLIVRDSDS [H17L]
3. SRHLSSQVKKTTTRWCHIVRDSDS [N5S]
4. SRHLNSQVKKTTTRWCHCVRDSDS [I18C]
5. SRHLNSQVKPTTTRWCHIVRDSDS [K10P]
6. SRHLNSQVKDTTTRWCHIVRDSDS [K10D]

A.
1. 2.3
2. 1.7
3. 1.92
4. 2.13
5. 2.28
6. 2.56

For each of the variants below, state protein stability index.
1. SRHLNSQVKKTTTRWCHITRDSDS [V19T]
2. LRHLNSQVKKTTTRWCHIVRDSDS [S1L]
3. SRHLNSQVKKITTRWCHIVRDSDS [T11I]
4. SRHLNAQVKKTTTRWCHIVRDSDS [S6A]
5. SRHLNSQVKETTTRWCHIVRDSDS [K10E]
6. SRHLNSQVEKTTTRWCHIVRDSDS [K9E]

A.
[3.13, 1.51, 1.67, 2.29, 2.63, 2.33]
